target: T1, human VPAC2 receptor (human, UniProt P41587 24-438)
T1 sequence (looked up): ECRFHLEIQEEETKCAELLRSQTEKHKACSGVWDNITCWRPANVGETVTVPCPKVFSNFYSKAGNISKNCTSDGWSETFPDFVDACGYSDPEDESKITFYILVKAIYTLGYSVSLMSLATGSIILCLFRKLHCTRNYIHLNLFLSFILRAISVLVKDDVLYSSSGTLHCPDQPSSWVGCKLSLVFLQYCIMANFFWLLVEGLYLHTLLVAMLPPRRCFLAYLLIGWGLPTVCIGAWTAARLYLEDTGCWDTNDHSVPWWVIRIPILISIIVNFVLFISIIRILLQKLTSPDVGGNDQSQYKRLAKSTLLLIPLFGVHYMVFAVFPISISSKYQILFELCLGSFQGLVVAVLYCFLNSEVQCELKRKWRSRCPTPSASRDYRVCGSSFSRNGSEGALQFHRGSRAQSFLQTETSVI
test_name: cell-based or functional assay
Where no end group is shown, it is not given here. [ ]: non-standard residue; d: D form. The star is where a group is joined. Hexanoyl = CCCCCC(=O)*; Aib = CC(C)(N)C(=O)O
With a cut-off of 200 pM, any EC50 cAMP, Alpha Screen strictly below it is called yes; any EC50 cAMP, Alpha Screen meeting it or above is called no.

Worked cases, answers included:
Hexanoyl-HSDAVFTDNYT[Aib]LR[Aib]QVAA[Aib]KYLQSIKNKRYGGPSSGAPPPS (ends and bridges not checked) [P345] | no
Hexanoyl-HSDAVFTDNYTRLRKQVALKKYLQSIKNKRYGGPSSGAPPPS [P155] | no
Hexanoyl-HSDAVFTDNYTRLRKQVAAKKYLQSIKNKRGGPSSGAPPPS [P123] | yes
Hexanoyl-HSDAVFTDNYTRLR[Aib]QVAA[Aib]KYLQSIKPKGGPSSGAPPPS (ends and bridges not checked) [P350] | yes

Attention now turns to another entry.
For Hexanoyl-HSDAVFTDNYTRLRKQVAAWKYLQSIKNKRYGGPSSGAPPPS [P153] , is the recorded EC50 cAMP, Alpha Screen below the cut-off of 200 pM?
yes
